- assay-info: RP, Waters ACQUITY UPLC BEH Shield RP18, 100 × 2.1 mm, 1.7 µm, 30 °C, 0.6 mL/min, estimated dead time 0.37 min; A: water + 0.1% formic acid, pH 3; B: acetonitrile + 0.1% formic acid, pH 3; gradient (min/%B) 0/0 2/0 7/10 22/95 22.1/0 26/0
- condition-parameters: stereoisomer not certain
quantity-kind: LC retention time (min)

Past entries and their recorded results:
compound	unit-tag	LC retention time
O=C(O)C=Cc1ccc(O)cc1	min	12.3
CC1CCC2(C(=O)O)CCC3(C)C(=CCC4C5(C)CCC(O)C(C)(C)C5CCC43C)C2C1C (centres undefined)	min	22.7
O=C(CCc1ccc(O)cc1)c1c(O)cc(O)cc1O	min	15.6

[I] O=C(O)CCc1ccc(O)cc1
[II] CC12CCc3occc3C1CCC13CC(CCC12)C(O)(CO)C3 (centres undefined)
Exercise: Look at I and II . Which one has the lower recorded LC retention time number? Give the label of your selection.
Solution: I

[a] O=c1c(OS(=O)(=O)O)c(-c2ccc(O)c(O)c2)oc2cc(O)cc(O)c12 [Quercetin 3-O-sulfate]
[b] COc1cc(/C=C/C(=O)O)ccc1O
Exercise: a or b : whose LC retention time is greater? The response must carry the label of the picked entry.
Solution: a
(a: 19.4 min, b: 12.5 min)

---

- assay-info: RP, Phenomenex Synergi Hydro-RP, 250 × 2 mm, 4 µm, 25 °C, 0.2 mL/min, estimated dead time 2.5 min; A: water + 0.1% formic acid, pH 3; B: acetonitrile + 0.1% formic acid, pH 3; gradient (min/%B) 0/0.5 7/0.5 12/12.5 25/16.3 47/35 48/65 50/65 50.1/0.5
- condition-parameters: stereoisomer not certain
quantity-kind: LC retention time (min)

compound	unit-tag	LC retention time
O=C(O)c1ccc(O)cc1 [4-Hydroxybenzoic acid]	min	19.9
COc1cc(/C=C/C(=O)O)ccc1O	min	32.7
O=C(O)CNC(=O)c1ccccc1	min	20.2
O=c1c(OC2OC(CO)C(O)C(O)C2O)c(-c2ccc(OC3OC(CO)C(O)C(O)C3O)c(O)c2)oc2cc(O)cc(O)c12 (configuration not stated) [Quercetin-3,4'-diglucoside]	min	29.1
CC1OC(OCC2OC(Oc3c(-c4ccc(O)cc4)oc4cc(O)cc(O)c4c3=O)C(O)C(O)C2O)C(O)C(O)C1O (configuration not stated) [Kaempferol 3-O-rutinoside]	min	37

[A] O=c1c(O)c(-c2ccc(O)c(O)c2)oc2cc(O)cc(O)c12
[B] O=C(O)Cc1ccc(O)c(O)c1 [3,4-Dihydroxyphenylacetic acid]
Exercise: Returns the identifier with the smallest measured LC retention time among A and B . Provide the label of your selected option as the answer.
Solution: B

---

- assay-info: RP, Waters ACQUITY UPLC BEH C18, 100 × 2.1 mm, 1.7 µm, 65 °C, 0.4 mL/min, estimated dead time 0.55 min; A: water + 0.1% formic acid, pH 3; B: 80% acetonitrile + 20% acetone + 0.1% formic acid, pH 3; gradient (min/%B) 0/0 5/100 5.5/0 6/0
- condition-parameters: stereoisomer not certain
quantity-kind: LC retention time (min)

Solved cases (3 shown):
molecule	LC retention time, min
O=C(O)Cc1ccc(O)cc1 [4-Hydroxyphenylacetic acid]	1.76
O=C(OC1OC(C(=O)O)C(O)C(O)C1O)c1c[nH]c2ccccc12 (stereo not given) [3-Indole carboxylic acid glucuronide]	1.89
O=c1oc2c(O)c(O)cc3c(=O)oc4c(O)c(O)cc1c4c23	1.91

[a] O=C(O)CNC(=O)c1ccccc1
[b] Cc1ncc(CO)c(C=O)c1O
Exercise: // pick min by LC retention time: a , b Answer format: the label of the selected item.
Solution: b
(b: 0.821 min, a: 1.86 min)

---

- assay-info: RP, 50 × 0.5 mm, 2.7 µm, 35 °C, 0.01 mL/min, estimated dead time 0.62 min; A: water + 0.1% formic acid, pH 3; B: acetonitrile + 0.1% formic acid, pH 3; gradient (min/%B) 0/5 12/95 14/95 16/5
- condition-parameters: stereoisomer not certain
quantity-kind: LC retention time (min)

Use the examples below as a reference point.
compound	LC retention time (min)
O=C(O)CCc1ccc(O)cc1	3.41
COc1ccc(C2CC(=O)c3c(O)cc(O)cc3O2)cc1O (stereo unspecified)	6.17
COc1cc(C=CC(=O)O)cc(OC)c1O	4.25
CC1CCC2(C(=O)O)CCC3(C)C(=CCC4C5(C)CCC(O)C(C)(C)C5CCC43C)C2C1C (stereo unspecified)	11.2
O=c1cc(-c2ccc(O)cc2)oc2cc(OC3OC(CO)C(O)C(O)C3O)cc(O)c12 (stereo unspecified) [Apigenin 7-O-glucoside]	4.87

[P] OCCc1ccc(O)c(O)c1 [Hydroxytyrosol]
[Q] COc1ccc(-c2cc(=O)c3c(OC)c(OC)c(OC)c(OC)c3o2)cc1
[R] C[n+]1cccc(C(=O)[O-])c1
[S] Oc1cc(O)c2c(c1)OC(c1ccc(O)c(O)c1)C(O)C2 (single isomer, unassigned; (-)) [(-)-Epicatechin]
Exercise: Sort low-to-high on LC retention time, please. A ranking is expressed here by listing the labels in the requested order.
Solution: R, P, S, Q
(R: 0.771 min, P: 1.67 min, S: 3.43 min, Q: 7.8 min)

---

- assay-info: RP, Agilent ZORBAX RRHD Eclipse Plus C18, 50 × 2.1 mm, 1.8 µm, 30 °C, 0.4 mL/min, estimated dead time 0.28 min; A: water + 0.1% formic acid, pH 3; B: acetonitrile + 0.1% formic acid, pH 3; gradient (min/%B) 0/1 5/10 8/25 9.1/99 10/99 12/99
- condition-parameters: stereoisomer not certain
quantity-kind: LC retention time (min)

compound	test-value
COc1ccc(C(=O)O)cc1OS(=O)(=O)O [Isovanillic acid-3-O-sulfate]	3.47
O=C(NC(O)C(=O)O)c1ccccc1 (stereo not drawn) [Alpha-hydroxyhippuric acid]	1.37
O=S(=O)(O)Oc1ccccc1O [Catechol O-sulfate]	1.45
COc1cc(/C=C/C(=O)O)ccc1O	4.67
O=C(O)Cc1ccc(O)c(O)c1 [3,4-Dihydroxyphenylacetic acid]	1.47
COc1c(O)cc(C(=O)O)cc1OS(=O)(=O)O [4-O-methylgallic acid 3-O-sulfate]	1.15
COc1ccc(C2CC(=O)c3c(O)cc(O)cc3O2)cc1O (stereo unspecified)	9.29
COc1cc(CC(=O)O)ccc1O	2.83
O=C1c2c(O)cc(O)cc2OC(c2ccc(O)c(O)c2)C1O (stereo unspecified)	8.66
O=C(O)CCc1ccc(O)cc1	6.26

[I] O=c1c(OS(=O)(=O)O)c(-c2ccc(O)c(O)c2)oc2cc(O)cc(O)c12 [Quercetin 3-O-sulfate]
[II] COc1cc(CCC(=O)O)ccc1OC1OC(C(=O)O)C(O)C(O)C1O (stereo unspecified) [Dihydroferulic acid-4-O-glucuronide]
Exercise: In terms of reported LC retention time, does I or II have the smaller number? Please identify the chosen entry by its label.
Solution: II
(II: 5.15 min, I: 8.12 min)

---

- assay-info: RP, Merck Supelco SUPELCOSIL LC-C18, 250 × 4.6 mm, 5 µm, 40 °C, 1 mL/min, estimated dead time 2.6 min; A: water + 0.1% trifluoroacetic acid, pH 2; B: acetonitrile + 0.1% trifluoroacetic acid, pH 2; gradient (min/%B) 0/5 45/35 47/75 49/35 50/5
- condition-parameters: stereoisomer not certain
quantity-kind: LC retention time (min)

compound	unit-tag	test-value
O=C(O)C=Cc1ccccc1O	min	25.9
COc1cc(-c2[o+]c3cc(O)cc(O)c3cc2O)cc(OC)c1O	min	35.9
O=C(O)c1ccc(O)c(O)c1	min	7.9
O=C(C=Cc1ccc(O)c(O)c1)OC1CC(O)(C(=O)O)CC(O)C1O (configuration not stated)	min	13.8

[1] O=C1c2c(O)cc(O)cc2OC(c2ccc(O)c(O)c2)C1O (configuration not stated)
[2] O=c1cc(-c2ccc(O)cc2)oc2cc(O)cc(O)c12
[3] O=C(O)c1ccc(O)c(O)c1O [2,3,4-Trihydroxybenzoic acid]
[4] COc1cc(C(=O)O)ccc1O
Exercise: Put the compounds in ascending order of LC retention time. To answer, arrange all of the labels according to the requested order.
Solution: 3, 4, 1, 2

[P] COc1cc(-c2[o+]c3cc(O)cc(O)c3cc2OC2OC(CO)C(O)C(O)C2O)cc(O)c1O (configuration not stated) [Petunidin-3-O-glucoside]
[Q] Oc1ccc(-c2[o+]c3cc(O)cc(O)c3cc2O)cc1
Exercise: Return label of the item with the larger LC retention time. Candidates: P , Q . Label of pick, please.
Solution: Q

[A] O=c1cc2oc(-c3cc(O)c(O)c(O)c3)c(O)cc-2c(O)c1
[B] OCC1OC(Oc2cc3c(OC4OC(CO)C(O)C(O)C4O)cc(O)cc3[o+]c2-c2ccc(O)c(O)c2)C(O)C(O)C1O (configuration not stated) [Cyanidin-3,5-O-diglucoside]
[C] O=c1cc(-c2ccccc2)oc2cc(O)cc(O)c12
Exercise: Please list the entries, largest LC retention time first. Please respond with the labels ordered as the question requires.
Solution: C, A, B
(C: 39.4 min, A: 25.1 min, B: 16.4 min)

[1] COc1cc(-c2[o+]c3cc(O)cc(O)c3cc2OC2OC(CO)C(O)C(O)C2O)ccc1O (configuration not stated) [Peonidin-3-O-glucoside]
[2] O=C(O)C=Cc1ccccc1 [Cinnamic acid-trans]
Exercise: Of 1 and 2 , which one carries the higher reported LC retention time? Answer with the label corresponding to your selection.
Solution: 2
(2: 35.6 min, 1: 24.8 min)
